Target: GHSR1a receptor (Homo sapiens, UniProt Q92847)
Construct: expressed in transfected cells; host or cells: HEK293 (membranes)
Sequence (Q92847 whole entry): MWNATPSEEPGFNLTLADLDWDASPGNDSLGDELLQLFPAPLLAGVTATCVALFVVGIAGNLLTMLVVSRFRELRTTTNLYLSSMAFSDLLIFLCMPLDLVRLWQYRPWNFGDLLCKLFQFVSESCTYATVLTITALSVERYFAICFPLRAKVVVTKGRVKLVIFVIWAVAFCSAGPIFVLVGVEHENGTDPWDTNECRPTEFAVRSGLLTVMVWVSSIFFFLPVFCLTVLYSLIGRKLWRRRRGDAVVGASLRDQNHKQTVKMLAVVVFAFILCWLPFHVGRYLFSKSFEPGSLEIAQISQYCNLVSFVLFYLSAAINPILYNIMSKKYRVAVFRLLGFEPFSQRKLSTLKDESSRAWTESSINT
Assay: 125I-Ghrelin binding assay
Conditions: displacement of 125I-ghrelin (0.053 nM), membranes of HEK293 cells transfected with GHSR1a; Cheng-Prussoff; '—' not defined; read-out: Binding pKi (converted)
Procedure: Plasmid DNA containing the GHSR1a receptor (12.5 ug/dish) in 0.675 ml DMEM was transfected into the cells by mixing with 180 ul PolyFect, 15 min later mixing in 2.25 ml 10% CS/DMEM, and transferring the mixture into the dish. […] Pelleted cells were added to a nitrogen cavitation chamber and 900 bar of pressure applied for 30 min. […] The protein concentration was determined using the BioRad Protein Assay Dye Reagent according to the manufacturers instructions. […]
Threshold-based label: Ki under 200 nM gives yes, Ki not under 200 nM gives no.

The examples below pair each entry with its known result.
> print(dat)
                                   molecule  classification
1  COc1cccc2c(C(C)=O)cn(CCCN3CCN(c4ccc(C#N)cc4)CC3)c12              no
2  CC(=O)c1cn(CCCN2C3CCC2CC(CCc2ccccc2)C3)c2ccccc12 (centres unmarked) [drawing 433]              no
3  COc1cccc2c(C(C)=O)cn(CCCN3CCC(c4nc5ccccc5s4)CC3)c12 [drawing 280]              no

Strictly below 200 nM: is that where Ki of CCCOC1CCN(CCCn2cc(C(C)=O)c3cccc(OC)c32)CC1 [drawing 333] sits?
no

Just wondering, is Ki of CC(=O)c1cn(CCCN2C3CCC2CC(Oc2ccc(F)cc2)C3)c2ncccc12 (centres unmarked) below 200 nM?
no

Provenance of the data: patent US20070213359A1
